Consider the following compounds; for each one, report its composite z-score.
EXPERIMENT: small-molecule microarray binders of probe aShh, primary screen, biochemical, biotinylated probe, 635/667 nm fluorescence (AID 1114);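 also: probe is biotin-labelled aShh protein from a stem cell growth factor screen; measures binding of labelled protein to compounds printed on the slide; score merges feature fluorescence at 667 nm with signal-to-noise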
RUN_PARAMETERS: higher = more signal
Hey, just send me the number, nothing else.

### Prompt Param item = CC(C)c1ccc(NN2C(C(O)C(c3ccccc3)c3ccccc3)C=CC3C(=O)N(c4ccccc4)C(=O)C32)cc1 (stereo unspecified) ; retrieve measured composite z-score.
### Response 0.171

### Prompt Could you share which composite z-score value was measured for [N-]=[N+]=NCc1ccccc1[C@@H]1OC(c2ccc(OCCCO)cc2)=N[C@]1(Cc1ccccc1N=[N+]=[N-])C(=O)N1CCOCC1 ?
### Response 0.686

### Prompt So what's the measured composite z-score for this one? C=CCOC(=O)[C@H]1[C@@H]2C(=O)O[C@@H](c3ccccc3)[C@@H](c3ccccc3)N2[C@@H](c2ccc(OCCOC(=O)[C@@H]3C[C@@H]4C(=O)N[C@@H](CCCC[N+](C)(C)C)C(=O)N4[C@@H]3c3ccc(O)cc3)cc2)[C@]12C(=O)Nc1ccccc12
### Response 0.123

### Prompt Entry O=C(c1ccccc1)N1Cc2ccccc2[C@@H]2OC(c3ccc(OCCCO)cc3)=N[C@]2(Cc2ccccc2)C1=O has what composite z-score?
### Response -0.305

### Prompt Form field: reported composite z-score of O=C1O[C@H](c2ccccc2)[C@H](c2ccccc2)N2[C@H]1[C@@H](C(=O)Nc1nc3ccccc3s1)[C@]1(C(=O)Nc3ccc(C#CCCO)cc31)[C@H]2c1ccc(OCCO)cc1
### Response 0.184

### Prompt Recorded composite z-score for CC(C)c1ccc(NN2C(C(O)c3cc(C(F)(F)F)cc(C(F)(F)F)c3)C=CC3C(=O)N(c4ccccc4)C(=O)C32)cc1 (stereo unspecified) , please?
### Response 0.37
